# System: morningglory (Ipomoea coccinea)
# Test details: Test C greenhouse herbicide test, pre- and postemergence
# Format: in vivo
# Run conditions: Preemergence, 250 g ai/ha; scale 0 to 100 (0 no effect, 100 complete control)
Measure name: Morningglory plant response rating
One number for each entry.

>>> observed("CCC(=O)Oc1c(Cl)nn(C)c(=O)c1-c1c(C)sc2ccc(Cl)cc12")
98
>>> observed("CCOC(=O)Oc1c(C)nn(C)c(=O)c1-c1c(C)sc2ccc(C)cc12")
95
>>> observed("COC(=O)Oc1c(Br)nn(C)c(=O)c1-c1c(C)ccc2ccccc12")
98

Go through the items and report each one's Morningglory plant response rating.
1. COC(=O)Oc1c(C)nn(C)c(=O)c1-c1c(C)sc2c(C)cc(C)cc12
2. Cc1nn(C)c(=O)c(-c2c(C)sc3ccc(Cl)cc23)c1O
3. CC(=O)Oc1c(C)nn(C)c(=O)c1-c1c(C)sc2ccc(C)cc12
4. Cc1ccc2ccccc2c1-c1c(O)c(C)nn(C)c1=O
5. CC(=O)Oc1c(Br)nn(C)c(=O)c1-c1c(C)ccc2ccccc12
6. Cc1cc(C)c2sc(C)c(-c3c(OC(=O)OCCCl)c(C)nn(C)c3=O)c2c1

1: 95; 2: 98; 3: 100; 4: 100; 5: 98; 6: 98
